- System: U2OS
- EXPERIMENT: Multiplex assay against U2OS
- Assay type: toxicity, cell-based
- RUN CONDITIONS: human, 48 h, 10 µM, compound concentration 10 uM, replicate 2

MOLECULE	Population Mitotic Cells (%)
COc1ccc2c(c1)C(C(=O)N(Cc1ccc(N(C)C)cc1)c1ccc(C(C)C)cc1)CCC2.Cl (stereo not drawn)	7%
N[C@@]1(C(=O)O)CO[C@H]2[C@H](C(=O)O)[C@H]21	9%
CSc1ccccc1N1CCN(CCCCCC(=O)NC2CCCc3ccccc32)CC1.Cl (stereo not drawn)	0%
Cc1ccc(C(C)(O)c2nc3ccccc3s2)c(C)c1 (stereo not drawn)	14%
CNC[C@H](O)c1ccc(O)c(O)c1 [EPINEPHRINE]	5%
c1cc(OCCCN2CCCCC2)ccc1CN1CCCCC1	6%
CCCn1c(=O)c2[nH]c(C3CCCC3)nc2n(CCC)c1=O	0%
Cc1ccc(-c2ccc(F)cc2COc2ccc(CCC(=O)O)cc2)cc1	11%
Oc1c(CN2CCN(c3ccccn3)CC2)cc(Cl)c2cccnc12	0%
CCCC(CCC)C(=O)O	6%
Cc1ccc(/C(=C\CN2CCCC2)c2ccccn2)cc1	10%
CCNC1(C(N)=O)CCN(c2ncnc3c2nc(-c2ccccc2Cl)n3-c2ccc(Cl)cc2)CC1	20%
CN1CCN2c3ncccc3Cc3ccccc3C2C1 (stereo not drawn)	0%
Cc1ccc(F)cc1C(=O)Nc1ccc(C(=O)N2Cc3cccn3Cc3ccccc32)c(Cl)c1	7%
Cc1nc2ccc(Oc3ccc(F)cc3)cc2c(=O)n1C[C@H]1CCCN(C(C)C)C1.Cl	11%
COc1cc(C(=O)N(CCCc2ccccc2)Cc2ccc(CC(=O)O)cc2)cc(OC)c1C	5%
C[C@H](NC(=O)c1c(C(F)F)nn(C)c1Oc1cccc(C(F)(F)F)c1)c1ccc(C(=O)O)cc1	14%
O=C(NCC(=O)N1CC[C@H](N[C@H]2CC[C@@](O)(c3ccc(-c4ncccn4)cn3)CC2)C1)c1cccc(C(F)(F)F)c1	7%
CSCC[C@H](NC=O)C(=O)N[C@@H](CC(C)C)C(=O)N[C@@H](Cc1ccccc1)C(=O)O	0%
N#Cc1c(N)nc(SCc2csc(-c3ccc(Cl)cc3)n2)c(C#N)c1-c1ccc(OCCO)cc1	33%
CC[C@H]1OC(=O)[C@H](C)[C@@H](O[C@H]2C[C@@](C)(OC)[C@@H](O)[C@H](C)O2)[C@H](C)[C@@H](O[C@@H]2O[C@H](C)C[C@H](N(C)C)[C@H]2O)[C@@]2(C)CC(C)=C(O2)[C@H](C)[C@@H](O)[C@]1(C)O	16%
CN1CCN(c2nc3cc(C(F)(F)F)ccc3n3cccc23)CC1.O=C(O)/C=C\C(=O)O.O=C(O)/C=C\C(=O)O	18%
Cl.Clc1ccc2nsnc2c1NC1=NCCN1 [TIZANIDINE HYDROCHLORIDE]	23%
